These entries and their values trace back to patent US20250066370A1.

We begin with a simple list: items and their reported IC50.
- system name: CDK12/CyclinK (Homo sapiens (Human))
- Sequence (Q9NYV4 other isoform, or with tags, fused parts or gaps): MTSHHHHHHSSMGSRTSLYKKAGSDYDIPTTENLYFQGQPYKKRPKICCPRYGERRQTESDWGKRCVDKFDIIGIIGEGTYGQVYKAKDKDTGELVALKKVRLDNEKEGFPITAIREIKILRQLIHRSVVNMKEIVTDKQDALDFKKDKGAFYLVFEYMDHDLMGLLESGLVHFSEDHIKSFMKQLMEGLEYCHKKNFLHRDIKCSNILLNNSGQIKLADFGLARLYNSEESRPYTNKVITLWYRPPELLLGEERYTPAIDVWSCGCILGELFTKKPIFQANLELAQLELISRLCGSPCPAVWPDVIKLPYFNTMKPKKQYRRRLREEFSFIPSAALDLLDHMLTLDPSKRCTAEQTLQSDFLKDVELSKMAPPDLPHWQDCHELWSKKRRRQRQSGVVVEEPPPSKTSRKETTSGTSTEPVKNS
- Sequence (O75909 other isoform, or with tags, fused parts or gaps partner): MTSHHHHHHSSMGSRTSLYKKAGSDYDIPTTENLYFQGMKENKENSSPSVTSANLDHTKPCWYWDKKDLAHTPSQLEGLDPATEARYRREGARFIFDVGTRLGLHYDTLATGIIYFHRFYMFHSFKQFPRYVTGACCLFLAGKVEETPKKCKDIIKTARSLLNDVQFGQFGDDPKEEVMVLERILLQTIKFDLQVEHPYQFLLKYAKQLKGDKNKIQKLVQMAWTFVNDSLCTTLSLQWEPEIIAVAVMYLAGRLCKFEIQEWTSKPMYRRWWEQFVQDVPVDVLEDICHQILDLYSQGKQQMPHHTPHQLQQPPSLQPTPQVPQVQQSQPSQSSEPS
- measurement notes: CDK12/CycK high ATP kinase assay (TR-FRET)
- measurement context: 2 mM ATP (high ATP); median; read-out: CDK12/CyclinK, 2 mM ATP (high ATP), IC50 - [mol/l] (median)
Return type: number; implicit unit nM.

Worked examples follow.
INSERT INTO measurements (cpd_smiles, parameter, unit_label, test_value) VALUES
  ('Cc1ccc(-c2nnc(CNc3nc(N4CCOCC4)nn4c(C(F)(F)F)cnc34)[nH]2)cn1', 'IC50', 'nM', 160),
  ('FC(F)(F)Oc1ccc(-c2cnc(CNc3nc(N4CCOCC4)nc4c(Br)cnn34)[nH]2)cc1', 'IC50', 'nM', 34.8),
  ('COc1ccc(-c2nnc(CNc3nc(N4CCOCC4)nc4c(C(F)(F)F)cnn34)[nH]2)cn1', 'IC50', 'nM', 526);

Q. Look up IC50 of `FC(F)(F)c1ccc(-c2cnc(CNc3nc(N4CCOCC4)nc4c(C(F)(F)F)cnn34)[nH]2)cc1` and report it.
A. 9.21
